Origin of the recorded values: patent US5597823A

Target: α-1B adrenoceptor (rat spleen) (Rattus norvegicus)
Construct: PE-induced contraction of rat spleen; from tissue; host or cells: rat spleen
Sequence (P15823 1-515): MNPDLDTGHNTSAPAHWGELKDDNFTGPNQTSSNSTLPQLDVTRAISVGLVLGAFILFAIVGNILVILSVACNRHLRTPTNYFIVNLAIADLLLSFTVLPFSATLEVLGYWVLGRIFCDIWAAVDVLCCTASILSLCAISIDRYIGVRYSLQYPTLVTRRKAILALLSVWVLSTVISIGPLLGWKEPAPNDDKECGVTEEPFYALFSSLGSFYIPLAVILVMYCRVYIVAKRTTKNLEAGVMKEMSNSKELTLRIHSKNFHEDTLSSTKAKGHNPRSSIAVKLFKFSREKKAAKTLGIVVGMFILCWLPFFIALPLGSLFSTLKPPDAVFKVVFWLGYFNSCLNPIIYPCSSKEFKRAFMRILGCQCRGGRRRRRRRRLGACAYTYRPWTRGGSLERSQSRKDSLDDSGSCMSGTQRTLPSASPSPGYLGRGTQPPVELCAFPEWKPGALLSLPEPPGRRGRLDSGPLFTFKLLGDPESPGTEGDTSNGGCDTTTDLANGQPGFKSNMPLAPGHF
Assay: Functional antagonism: phenylephrine (PE)-induced contraction of rat spleen
Type: cell-based
Settings: vs phenylephrine; Schild plot; read-out: pA2 Rat Spleen [α-1B] (converted)
From the text: Functional assays indicative of pharmacologically defined α-1 adrenoceptors were used to further characterize compounds. Inhibition of phenylephrine (PE)-induced contraction of canine prostate smooth muscle can be correlated with α-1A adrenoceptor activation. […] For each of these models, agonist dose response curves were repeated against increasing concentrations of test agent to derive a Schild plot [log ([…]) against log (molarity of test agent)] to determine the pA2.
Structures can show the parent of a compound that is named as a salt.
Endpoint name: Kb (nM)

> print(dat)
                                   molecule  observed.value
1  COCCOCCn1c(=O)n(CCN2C[C@@H]3CCc4c(OC)cccc4[C@@H]3C2)c(=O)c2sc3nccnc3c21 [Example 102, hydrochloride]            17.4
2  COc1cccc2c1CC[C@H]1CN(CCn3c(=O)[nH]c4c(sc5ncccc54)c3=O)C[C@@H]21 [Example 31, hydrochloride]            17.4
3  COc1cccc2c1CC[C@H]1CN(CCn3c(=O)[nH]c4c(sc5cccc(C)c54)c3=O)C[C@@H]21 [Example 69, hydrochloride]            69.2
4  COc1cccc2c1CC[C@@H]1CN(CCn3c(=O)[nH]c4c(oc5ccccc54)c3=O)C[C@@H]21 (relative stereo) [Example 18, hydrochloride]            13.5
5  COc1cccc2c1CC[C@H]1CN(CCn3c(=O)[nH]c4c(ccc5ccccc54)c3=O)C[C@@H]21 (relative stereo) [Example 25, hydrochloride]             174
6  COc1cccc2c1CC[C@@H]1CN(CCn3c(=O)[nH]c4c(sc5ccccc54)c3=O)C[C@@H]21 (relative stereo) [Example 10, hydrochloride]            30.2

----------
Molecular target: α-1A adrenoceptor (dog prostate) (Canis lupus)
Sequence (A0A8I3NK63 1-466): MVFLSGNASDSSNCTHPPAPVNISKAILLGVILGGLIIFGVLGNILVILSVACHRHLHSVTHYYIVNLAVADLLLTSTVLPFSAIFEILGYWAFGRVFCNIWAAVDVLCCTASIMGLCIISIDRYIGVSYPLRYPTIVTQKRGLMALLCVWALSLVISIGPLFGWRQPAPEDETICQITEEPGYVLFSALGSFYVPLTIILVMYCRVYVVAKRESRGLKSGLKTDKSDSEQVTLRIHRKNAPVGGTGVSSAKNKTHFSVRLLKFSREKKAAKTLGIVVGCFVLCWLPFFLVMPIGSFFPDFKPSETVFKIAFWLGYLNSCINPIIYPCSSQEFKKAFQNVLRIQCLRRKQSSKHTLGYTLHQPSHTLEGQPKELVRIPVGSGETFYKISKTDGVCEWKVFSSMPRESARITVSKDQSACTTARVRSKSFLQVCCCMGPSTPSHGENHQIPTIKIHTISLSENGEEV
Assay: Functional antagonism: phenylephrine (PE)-induced contraction of canine prostate strips
Assay type: cell-based
Conditions: Table 2a; vs phenylephrine; Schild plot
Structures can show the parent of a compound that is named as a salt.
Please enter T where pA2 Dog Prostate [α-1A] is greater than or equal to 9, and F where it is lower.

> print(dat)
                                   molecule                             target.system  label.class
1  COc1cccc2c1CC[C@H]1CN(CCn3c(=O)[nH]c4c([nH]c5ccccc54)c3=O)C[C@@H]21 (relative stereo) [Example 14, hydrochloride]  α-1A adrenoceptor (dog prostate) (Canis lupus)            F
2  COc1cccc2c1CC[C@H]1CN(CCn3c(=O)[nH]c4c(oc5nccnc54)c3=O)C[C@@H]21 [Example 87, hydrochloride]  α-1A adrenoceptor (dog prostate) (Canis lupus)            F
3  COc1cccc2c1[C@@H]1CN(CCn3c(=O)[nH]c4c(sc5ccccc54)c3=O)C[C@@H]1CC2 (relative stereo) [Example 5, hydrochloride]  α-1A adrenoceptor (dog prostate) (Canis lupus)            F
4  COc1cccc2c1CC[C@H]1CN(CCn3c(=O)[nH]c4c(sc5cnccc54)c3=O)C[C@@H]21 [Example 36, dihydrochloride]  α-1A adrenoceptor (dog prostate) (Canis lupus)            T
